MEASUREMENT_TARGET: T1, HLA-A2 on T2 cells (human)
T1 construct: whole, on cells; MHC class I molecule on T2 cells
ASSAY_TEXT: T2 binding assay: T2 cells pulsed with 50 ug/mL peptide overnight, surface HLA-A2 by flow cytometry (BB7.2)
This section presents binders with their documented In Vitro HLA-A2 Expression (Relative Mean Flourescent Intensity) values.

Recorded In Vitro HLA-A2 Expression (Relative Mean Flourescent Intensity), per entry:
1) RMLYFAPDLV (Synthetic 10-mer) [AR761 peptide] :: 2.15 ratio to unloaded T2 cells
2) FSIIPVDGL (Synthetic 9-mer derived from the AR LBD) [AR814 peptide] :: 1.01 ratio to unloaded T2 cells
3) LLLFSIIPV (Synthetic 9-mer) [AR811 peptide] :: 2.54 ratio to unloaded T2 cells
4) WMGLMVFAM (Synthetic 9-mer derived from the AR LBD) [AR742 peptide] :: 1.32 ratio to unloaded T2 cells
5) VLEAIEPGV (Synthetic 9-mer derived from the AR LBD) [AR677 peptide] :: 1.37 ratio to unloaded T2 cells
6) LGERQLVHVV (Synthetic 10-mer derived from the AR LBD) [AR708 peptide] :: 1.16 ratio to unloaded T2 cells
7) QLTKLLDSV (Synthetic 9-mer) [AR859 peptide] :: 1.33 ratio to unloaded T2 cells
8) ALLSSLNEL (Synthetic 9-mer derived from the AR LBD) [AR700 peptide] :: 2.66 ratio to unloaded T2 cells

Name the recorded In Vitro HLA-A2 Expression (Relative Mean Flourescent Intensity) of the item FLCMKALLL (Synthetic 9-mer) [AR805 peptide] in your answer. 2.19 ratio to unloaded T2 cells

Name the recorded In Vitro HLA-A2 Expression (Relative Mean Flourescent Intensity) of the item KLLDSVQPI (Synthetic 9-mer derived from the AR LBD) [AR862 peptide] in your answer. 1.65 ratio to unloaded T2 cells
